# Test system: DLBCL
# Test details: SynergyScreen of Pegcrisantaspase or Oncaspar with standard of care agents
# Type: cell-based
# Experimental context: agent combined with Pegcrisantaspase (FIG. 13A) or Oncaspar (FIG. 13B)
Reported property: effect in DLBCL when used with Pegcrisantaspase or Oncaspar

[[record]]
compound = "CC(C)C[C@H](NC(=O)[C@H](Cc1ccccc1)NC(=O)c1cnccn1)B(O)O [bortezomib]"
value_observed = "increased effect"

[[record]]
compound = "Cn1c(=O)n(-c2ccc(C(C)(C)C#N)cc2)c2c3cc(-c4cnc5ccccc5c4)ccc3ncc21 [dactolisib]"
value_observed = "increased effect"

[[record]]
compound = "C[C@]12C=CC(=O)C=C1CC[C@@H]1[C@@H]2[C@@H](O)C[C@@]2(C)[C@H]1CC[C@]2(O)C(=O)CO [prednisolone]"
value_observed = "increased effect"


The measurements presented in this section are drawn from patent US20230173042A1.
